# TARGET ENTITY: Kv1.1 (Homo sapiens, UniProt Q09470)
# Construct: expressed in transfected cells
# Sequence (Q09470 whole entry): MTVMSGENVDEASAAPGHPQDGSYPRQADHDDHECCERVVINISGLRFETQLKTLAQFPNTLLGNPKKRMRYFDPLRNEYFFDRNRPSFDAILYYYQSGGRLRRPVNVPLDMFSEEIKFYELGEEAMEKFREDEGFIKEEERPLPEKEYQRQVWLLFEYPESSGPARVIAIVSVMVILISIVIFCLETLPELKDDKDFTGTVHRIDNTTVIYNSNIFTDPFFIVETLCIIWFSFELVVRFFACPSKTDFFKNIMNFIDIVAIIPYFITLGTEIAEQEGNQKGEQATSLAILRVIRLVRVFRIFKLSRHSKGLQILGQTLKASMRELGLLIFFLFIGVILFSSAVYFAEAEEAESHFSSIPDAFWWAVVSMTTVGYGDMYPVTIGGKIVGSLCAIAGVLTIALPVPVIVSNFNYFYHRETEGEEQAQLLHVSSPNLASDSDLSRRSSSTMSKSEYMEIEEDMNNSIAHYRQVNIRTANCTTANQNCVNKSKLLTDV
# METHOD DESCRIPTION: Patch clamp assay (QPatch), Kv1.1
# Format: cell-based
# RUN PARAMETERS: ratio of IC50 Kv1.1/Kv1.3
MEASUREMENT LABEL: Selectivity Kv1.1/Kv1.3

Study these solved cases before continuing.
| SUBSTANCE | MEASUREMENT LABEL | ENDPOINT VALUE |
| --- | --- | --- |
| H-P[Nle]E[Nle]RC(1)SASVEC(2)KQKC(3)LAAIGSIFGKC(1)[Nle]NKKC(2)KC(3)YPR-NH2 [Peptide 101] | Selectivity Kv1.1/Kv1.3 | >16200 |
| H-NMDMRC(1)KASVEC(2)KQKC(3)LKAIGSIFGKC(1)MNKKC(2)KC(3)YPR-NH2 [Peptide 26] | Selectivity Kv1.1/Kv1.3 | >34200 |
| H-NMDMRC(1)SASVEC(2)KQKC(3)LKRIGSIFGKC(1)MNKKC(2)KC(3)YPR-NH2 [Peptide 57] | Selectivity Kv1.1/Kv1.3 | >9900 |
| Ac-C(1)SASVEC(2)KQKC(3)LKAIGSIFGKC(1)[Nle]NKKC(2)KC(3)YPR-NH2 [Peptide 109] | Selectivity Kv1.1/Kv1.3 | >12400 |
| H-NID[Nle]RC(1)SASVEC(2)KQKC(3)LKAIGSIFGKC(1)[Nle]NKKC(2)KC(3)YPR-OH [Peptide 98] | Selectivity Kv1.1/Kv1.3 | >11300 |

Tell me Selectivity Kv1.1/Kv1.3 reported for H-NMDMRC(1)SASVEC(2)KQKC(3)LDAIGSIFGKC(1)MNKKC(2)KC(3)YPR-NH2 [Peptide 21]
>14300

Tell me Selectivity Kv1.1/Kv1.3 reported for H-PIE[Nle]RC(1)SASVEC(2)KQKC(3)LAAIGSIFGKC(1)[Nle]NKKC(2)KC(3)YPR-OH [Peptide 105]
>8600

====

# TARGET ENTITY: Kv1.1 (Homo sapiens)
# Construct: expressed in transfected cells
# METHOD DESCRIPTION: Patch clamp assay (QPatch), Kv1.1
# Type: cell-based
# RUN PARAMETERS: ratio of IC50 Kv1.1/Kv1.3
Entries and their Selectivity Kv1.1/Kv1.3

Study these solved cases before continuing.
| SUBSTANCE | Selectivity Kv1.1/Kv1.3 |
| --- | --- |
| H-AAAISCVGSPECPPKCRAQGCKNGKCMNRKCKCYYC-NH2 [Vm24, reference compound] | 0.65 |
| H-N[Nle]D[Nle]RC(1)RASVEC(2)KQKC(3)LKAIGSIFGKC(1)[Nle]NKKC(2)KC(3)YPR-NH2 [Peptide 43] | >18600 |
| H-[phosphotyrosyl][8-Amino-3,6-dioxaoctanoyl]RSCIDTIPKSRCTAFQCKHSMKYRLSFCRKTCGTC-NH2 [ShK-186, reference compound] | 4.9 |
| H-N[Nle]D[Nle]RC(1)SASVEC(2)KKKC(3)LKAIGSIFGKC(1)[Nle]NKKC(2)KC(3)YPR-NH2 [Peptide 46] | >4000 |
| H-MDMRC(1)SASVEC(2)KQKC(3)LKAIGSIFGKC(1)MNKKC(2)KC(3)YPR-OH [Peptide 6] | >7900 |
| H-NMDMRC(1)SASVEC(2)KQKC(3)LAAIGSIFGKC(1)MNKKC(2)KC(3)YPR-NH2 [Peptide 53] | >27500 |
| H-NMDMRC(1)SASVEC(2)KQKC(3)LKAIRSIFGKC(1)MNKKC(2)KC(3)YPR-NH2 [Peptide 22] | >13700 |
| H-NMDMRC(1)SASVEC(2)KVKC(3)LKAIGSIFGKC(1)MNKKC(2)KC(3)YPR-NH2 [Peptide 18] | >7200 |
| H-NMDMRC(1)SASVEC(2)KQKC(3)LKAIGSRFGKC(1)MNKKC(2)KC(3)YPR-NH2 [Peptide 36] | >15000 |
| H-P[Nle]E[Nle]RC(1)SASVEC(2)KQKC(3)LAAIGSIFGKC(1)[Nle]NKKC(2)KC(3)YPR-OH [Peptide 100] | >9100 |

Tell me Selectivity Kv1.1/Kv1.3 reported for H-PIE[Nle]RC(1)SASVEC(2)KQKC(3)LKAIGSIFGKC(1)[Nle]NKKC(2)KC(3)YPR-OH [Peptide 99]
>7800

====

# TARGET ENTITY: Kv1.3 (Homo sapiens)
# Construct: expressed in transfected cells
# Sequence (P22001 whole entry): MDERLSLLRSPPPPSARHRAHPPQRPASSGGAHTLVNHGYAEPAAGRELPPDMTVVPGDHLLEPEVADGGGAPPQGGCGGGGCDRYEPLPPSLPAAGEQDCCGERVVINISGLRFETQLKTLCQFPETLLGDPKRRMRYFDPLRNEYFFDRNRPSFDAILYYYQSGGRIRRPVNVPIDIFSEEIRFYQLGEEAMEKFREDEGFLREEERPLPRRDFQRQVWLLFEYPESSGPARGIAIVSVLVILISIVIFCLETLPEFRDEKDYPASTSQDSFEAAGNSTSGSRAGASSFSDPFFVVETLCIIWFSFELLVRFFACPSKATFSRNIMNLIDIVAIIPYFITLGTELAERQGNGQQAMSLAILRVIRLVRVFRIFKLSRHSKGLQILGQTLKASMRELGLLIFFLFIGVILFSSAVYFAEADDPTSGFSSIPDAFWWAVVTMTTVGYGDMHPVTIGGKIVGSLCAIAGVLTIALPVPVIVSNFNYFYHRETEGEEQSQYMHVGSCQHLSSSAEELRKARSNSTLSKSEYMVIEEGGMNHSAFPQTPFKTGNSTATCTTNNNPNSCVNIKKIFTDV
# METHOD DESCRIPTION: Patch clamp assay (QPatch), Kv1.3
# Assay type: cell-based
# RUN PARAMETERS: CHO cells stably expressing human Kv1.3, read-out: Potency IC50, Kv1.3
Entries and their IC50
The reply should contain only the number, in nM.

Study these solved cases before continuing.
| SUBSTANCE | ENDPOINT VALUE |
| --- | --- |
| H-S[Nle]D[Nle]RC(1)SASVEC(2)AQSC(3)LKAIGSIFGKC(1)MNKKC(2)KC(3)YPR-NH2 [Peptide 81] | 0.21 |
| H-P[Nle]D[Nle]RC(1)SASVEC(2)KQKC(3)LKAIGSIFGKC(1)[Nle]NKKC(2)KC(3)YPR-NH2 [Peptide 42] | 0.18 |
| H-N[Nle]S[Nle]RC(1)SASVEC(2)KQKC(3)LKAIGSIFGKC(1)[Nle]NKKC(2)KC(3)YPR-NH2 [Peptide 47] | 0.32 |
| H-N[Nle]D[Nle]RC(1)SASVEC(2)KQKC(3)LKAIGSPFGKC(1)[Nle]NKKC(2)KC(3)YPR-NH2 [Peptide 63] | 0.26 |
| Ac-LRC(1)SASVEC(2)KQKC(3)LKAIGSIFGKC(1)[Nle]NKKC(2)KC(3)YPR-NH2 [Peptide 114] | 0.35 |
| H-NMDMRC(1)SASVEC(2)KQKC(3)RKAIGSIFGKC(1)MNKKC(2)KC(3)YPR-NH2 [Peptide 52] | 0.25 |
| H-P[Nle]E[Nle]RC(1)SASVEC(2)AQKC(3)LAAIGSIFGKC(1)[Nle]NKKC(2)KC(3)YPR-OH [Peptide 107] | 0.55 |
| H-MDMRC(1)SASVEC(2)KQKC(3)LKAIGSIFGKC(1)MNKKC(2)KC(3)YPR-OH [Peptide 6] | 0.38 |

Tell me IC50 reported for H-N[Nle]D[Nle]RC(1)SASVEC(2)KQKC(3)LKAIGSIFGKC(1)MNKKC(2)KC(3)YPR-NH2 [Peptide 40]
0.15

Tell me IC50 reported for H-NMDMRC(1)SASVEC(2)KLKC(3)LKAIGSIFGKC(1)MNKKC(2)KC(3)YPR-NH2 [Peptide 33]
0.38

Tell me IC50 reported for H-N[Nle]D[Nle]RC(1)SHSVEC(2)KQKC(3)LKAIGSIFGKC(1)[Nle]NKKC(2)KC(3)YPR-NH2 [Peptide 48]
0.54

Tell me IC50 reported for H-[Nle]D[Nle]RC(1)SASVEC(2)KQKC(3)LKAIGSIFGKC(1)[Nle]NKKC(2)KC(3)YPR-OH [Peptide 97]
0.17

Tell me IC50 reported for H-NMDMRC(1)SASVEC(2)LQKC(3)LKAIGSIFGKC(1)MNKKC(2)KC(3)YPR-NH2 [Peptide 30]
0.4

Tell me IC50 reported for H-NMDMRC(1)SASVEC(2)KQKC(3)LDAIGSIFGKC(1)MNKKC(2)KC(3)YPR-NH2 [Peptide 21]
0.21

Tell me IC50 reported for H-Y[Nle]D[Nle]RC(1)SASVEC(2)KQKC(3)LKAIGSIFGKC(1)[Nle]NKKC(2)KC(3)YPR-NH2 [Peptide 66]
0.14

Tell me IC50 reported for H-NMDMRC(1)SASVEC(2)KQKC(3)LKAIGSIFGKC(1)[Nle]NKKC(2)KC(3)YPR-NH2 [Peptide 17]
0.24

Tell me IC50 reported for H-N[Nle]D[Nle]RC(1)RASVEC(2)KQKC(3)LKAIGSIFGKC(1)[Nle]NKKC(2)KC(3)YPR-NH2 [Peptide 43]
0.16

====

Entries and their Selectivity Kv1.1/Kv1.3
# TARGET ENTITY: Kv1.1 (Homo sapiens)
# Construct: expressed in transfected cells
# METHOD DESCRIPTION: Patch clamp assay (QPatch), Kv1.1
# Assay type: cell-based
# RUN PARAMETERS: ratio of IC50 Kv1.1/Kv1.3

| SUBSTANCE | Selectivity Kv1.1/Kv1.3 |
| --- | --- |
| H-P[Nle]E[Nle]RC(1)[2-Amino-3-guanidinopropionyl]ASVEC(2)KQKC(3)LAAIGSIFGKC(1)[Nle]NKKC(2)KC(3)YPR-OH [Peptide 91] | >46000 |

Tell me Selectivity Kv1.1/Kv1.3 reported for H-S[Nle]DERC(1)SASVEC(2)KQKC(3)LKAIGSIFGKC(1)MNKKC(2)KC(3)YPR-NH2 [Peptide 78]
>10600

Tell me Selectivity Kv1.1/Kv1.3 reported for H-NMDMRC(1)SASVEC(2)KQKC(3)LKAIGSIFGKC(1)MNGKC(2)KC(3)YPR-NH2 [Peptide 37]
>9700

Tell me Selectivity Kv1.1/Kv1.3 reported for H-NMDMRC(1)SASVEC(2)KQKC(3)LKAIGSIFGKC(1)[Nle]NKKC(2)KC(3)YPR-NH2 [Peptide 17]
>12600

Tell me Selectivity Kv1.1/Kv1.3 reported for H-N[Nle]S[Nle]RC(1)SASVEC(2)KQKC(3)LKAIGSIFGKC(1)[Nle]NKKC(2)KC(3)YPR-NH2 [Peptide 47]
>9400

Tell me Selectivity Kv1.1/Kv1.3 reported for H-NMDMRC(1)SASVEC(2)KEKC(3)LKAIGSIFGKC(1)MNKKC(2)KC(3)YPR-NH2 [Peptide 32]
>10800
